test system: BT474; assay: Cytotoxicity assay (SRB), BT474; type: cell-based; conditions: Homo sapiens, BT-474, 144 h, BT474 cells, SRB, 6 days; read-out: In Vitro Cellular Activity IC50 BT474
Measurement type: IC50

                                   molecule  measurement_type  recorded_value
0  CN1CCN(c2ccc(N/C=C3\C(=O)NC(=O)c4ccc(Br)cc43)cc2)CC1              IC50          3.1 µM
1  COc1ccc(-c2ccc3c(c2)/C(=C/Nc2ccc(N4CCN(C)CC4)cc2)C(=O)NC3=O)cc1              IC50            5 µM
2  O=C1NC(=O)c2ccc(I)cc2/C1=C/Nc1ccc(CN2CCCCC2)cc1              IC50          0.6 µM
3  C/C=C/C(=O)Nc1ccc2c(c1)/C(=C/Nc1ccc(N3CCN(C)CC3)cc1)C(=O)NC2=O              IC50           26 µM
4   COc1ccc(N/C=C2\C(=O)NC(=O)c3ccccc32)cc1              IC50           43 µM
5  O=C1NC(=O)c2ccc(-c3ccc(F)cc3)cc2/C1=C/Nc1ccc(CN2CCCC2)cc1              IC50          1.4 µM
6  CCCOc1ccc(CN/C=C2\C(=O)N(O)C(=O)c3ccccc32)cc1O              IC50          6.4 µM
7  COc1ccc2c(c1)/C(=C/NCc1ccc(OC)c(O)c1)C(=O)NC2=O              IC50          6.9 µM

* * *

biological target: cyclin E/CDK2 enzyme (Homo sapiens); construct: made in house; host or cells: Sf9 insect cells, recombinant baculovirus; experiment: CDK2 ELISA kinase assay (phospho-Rb ser 795 detection); type: biochemical; settings: In Vitro Enzyme Assays, read-out: CDK2 IC50
pIC50: −log10 of the molar value.
Listed here: items and their measured pIC50.
Measurement type: pIC50

>>> df
                                   compound                               system  recorded_value
0  O=Cc1sccc1-c1ccc2c(c1)/C(=C/Nc1ccc(CN3CCCCC3)cc1)C(=O)NC2=O  cyclin E/CDK2 enzyme (Homo sapiens)            5.17
1  CC(=O)N1CCC(c2ccc(N/C=C3\C(=O)NC(=O)c4ccc(-c5ccoc5)cc43)cc2)CC1  cyclin E/CDK2 enzyme (Homo sapiens)          < 4.30
2  CN1CCN(c2ccc(N/C=C3\C(=O)NC(=O)c4ccc(-c5ccoc5)cc43)cc2)CC1  cyclin E/CDK2 enzyme (Homo sapiens)          < 4.30
3  O=C1NC(=O)c2ccc(-c3ccsc3)cc2/C1=C/Nc1ccc(N2CCN3CCC[C@H]3C2)c(F)c1  cyclin E/CDK2 enzyme (Homo sapiens)          < 4.30
4  CN1CCC(N(C)CC2CCN(c3ccc(N/C=C4\C(=O)NC(=O)c5ccc(I)cc54)cc3)CC2)C1 (stereo not shown)  cyclin E/CDK2 enzyme (Homo sapiens)          < 4.30
5  CN(C)C/C=C/C(=O)Nc1ccc(CN/C=C2\C(=O)NC(=O)c3ccc(I)cc32)cc1O  cyclin E/CDK2 enzyme (Homo sapiens)            6.59
6  COC1CCN(Cc2ccc(N/C=C3\C(=O)NC(=O)c4ccc(-c5ccc(F)cc5)cc43)cc2)CC1  cyclin E/CDK2 enzyme (Homo sapiens)          < 4.30

* * *

target: cyclin D1/cdk 4 enzyme (Homo sapiens); construct: made in house; host or cells: Sf9 insect cells, recombinant baculovirus; experiment: CDK4 ELISA kinase assay (phospho-Rb ser 795 detection); type: biochemical; conditions: In Vitro Enzyme Assays, 200 μM ATP, read-out: CDK4 IC50
pIC50: −log10 of the molar value.
Response key: true means pIC50 >= 7; false means pIC50 < 7.

>>> print(df.to_string())
                                    molecule  group_label
 0  O=C1NC(=O)c2ccc(-c3ccc(F)cc3)cc2/C1=C/Nc1ccc(CN2CCCCC2)cc1 [Example 251]        false
 1  O=C1NC(=O)c2ccc(Br)cc2/C1=C/NCc1cc(O)cc(O)c1 [Example 64]         true
 2  Cn1ccc(CN/C=C2\C(=O)NC(=O)c3ccc(I)cc32)cc1=O [Example 453]         true
 3  CC1CCCN1Cc1ccc(N/C=C2\C(=O)NC(=O)c3ccc(-c4ccoc4)cc32)cc1 (centres unmarked) [Example 291]        false
 4  COc1cc(CN/C=C2\C(=O)NC(=O)c3ccc(Br)cc32)ccn1 [Example 222]        false
 5  CC(C)N1CCN(c2ccc(N/C=C3\C(=O)NC(=O)c4ccc(-c5ccsc5)cc43)cn2)CC1 [Example 417]         true
 6  O=C1NC(=O)c2ccc(I)cc2/C1=C/Nc1ccc(N2CCC(CO)CC2)cc1 [Example 434]        false
 7  CN(CCN1CCCCC1)c1ccc(N/C=C2\C(=O)NC(=O)c3ccc(Br)cc32)cc1 [Example 256]        false
 8  CC(C)Oc1ccc(CN/C=C2\C(=O)NC(=O)c3ccc(Br)cc32)cc1O [Example 137]        false
 9  CN(C)CCCc1ccc(N/C=C2\C(=O)NC(=O)c3ccc(Br)cc32)cc1 [Example 270]        false
10  O=C1NC(=O)c2ccc(Br)cc2/C1=C/NCc1ccc(OCC2CC2)c(O)c1 [Example 219]        false
11  COc1ccc(C(C)N/C=C2\C(=O)NC(=O)c3ccc(Br)cc32)cc1O (centres unmarked) [Example 189]        false
12  O=C1NC(=O)c2ccc(Br)cc2/C1=C/NCc1cccc(O)c1 [Example 46]         true
13  COc1ccc(-c2ccc3c(c2)/C(=C/Nc2ccc(N4CCN(C)CC4)cc2)C(=O)NC3=O)cc1 [Example 114]        false
14  O=C1NC(=O)c2ccc(I)cc2/C1=C/Nc1ccc(N2CCN(C3CCC3)CC2)cc1 [Example 392]        false
15  COc1ccc(/C=C2/C(=O)NC(=O)c3ccccc32)cc1OC [Example 12]        false
16  CC(=O)Nc1cc(CN/C=C2\C(=O)NC(=O)c3ccc(Br)cc32)cc(O)c1O [Example 213]        false
17  COCC1CCN(c2ccc(N/C=C3\C(=O)NC(=O)c4ccc(I)cc43)cc2)CC1 [Example 435]        false
18  O=C1NC(=O)c2ccc(N3CCOCC3)cc2/C1=C/Nc1ccc(CN2CCCCC2)cc1 [Example 120]        false
19  O=C1NC(=O)c2ccc(-c3cccc(O)c3)cc2/C1=C/Nc1ccc(CN2CCCCC2)cc1 [Example 96]         true
20  O=C1NC(=O)c2ccc(-c3cccs3)cc2/C1=C/Nc1ccc(CN2CCC[C@H]2CO)cc1 (stereo in doubt) [Example 438]         true
21  CN1CCN(c2ccc(N/C=C3\C(=O)NC(=O)c4ccc(-c5coc(C=O)c5)cc43)nc2)CC1 [Example 448]         true
22  CN(C)CC1CCN(c2ccc(N/C=C3\C(=O)NC(=O)c4ccc(I)cc43)cc2)CC1 [Example 454]        false
23  CC(N)(C(=O)O)c1ccc(NC=C2C(=O)NC(=O)c3ccc(Br)cc32)cc1 (centres unmarked) [Example 277]        false
24  CN1CCN(c2ccc(N/C=C3\C(=O)NC(=O)c4ccc(C#Cc5ccccc5)cc43)cc2)CC1 [Example 171]        false
25  Cc1ccc(C)n1-c1ccc2c(c1)/C(=C/Nc1ccc(N3CCN(C)CC3)cc1)C(=O)NC2=O [Example 226]        false

* * *

biological target: cyclin D1/cdk 4 enzyme (Homo sapiens, UniProt P11802); construct: made in house; host or cells: Sf9 insect cells, recombinant baculovirus; assay: CDK4 ELISA kinase assay (phospho-Rb ser 795 detection); format: biochemical; settings: In Vitro Enzyme Assay, cyclin D1/cdk 4, read-out: CDK4 IC50
Sequence (P11802 whole entry, species assumed): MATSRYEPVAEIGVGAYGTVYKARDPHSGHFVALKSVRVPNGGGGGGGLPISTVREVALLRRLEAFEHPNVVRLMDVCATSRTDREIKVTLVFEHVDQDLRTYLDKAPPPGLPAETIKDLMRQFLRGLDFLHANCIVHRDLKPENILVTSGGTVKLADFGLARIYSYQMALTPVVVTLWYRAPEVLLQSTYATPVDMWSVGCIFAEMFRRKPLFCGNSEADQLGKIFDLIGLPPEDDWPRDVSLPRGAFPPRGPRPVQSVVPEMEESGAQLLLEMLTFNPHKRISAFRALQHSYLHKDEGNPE
Sequence (P24385 whole entry partner, species assumed): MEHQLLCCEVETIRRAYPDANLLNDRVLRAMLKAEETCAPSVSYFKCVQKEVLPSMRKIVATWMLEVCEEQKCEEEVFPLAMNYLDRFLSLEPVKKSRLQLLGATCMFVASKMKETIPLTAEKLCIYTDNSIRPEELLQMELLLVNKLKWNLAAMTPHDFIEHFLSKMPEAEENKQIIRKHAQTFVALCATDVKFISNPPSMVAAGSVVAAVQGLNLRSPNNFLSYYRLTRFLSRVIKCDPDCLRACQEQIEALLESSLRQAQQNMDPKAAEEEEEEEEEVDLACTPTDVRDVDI
Measurement type: IC50 (µM)

>>> df
                                   molecule                                    system  unit  qual  recorded_value
0  Cc1ccccc1-c1ccc2c(c1)C(=CNc1ccc(N3CCN(C)CC3)cc1)C(=O)NC2=O  cyclin D1/cdk 4 enzyme (Homo sapiens, UniProt P11802)    µM     =            32.3
1  COc1ccc(NC=C2C(=O)NCc3cc(-c4cc[nH]c4)ccc32)cc1  cyclin D1/cdk 4 enzyme (Homo sapiens, UniProt P11802)    µM     >              50
2  CN1CCN(c2ccc(NC=C3C(=O)NC(=O)c4ccc(-c5cc[nH]c5)cc43)cc2)CC1  cyclin D1/cdk 4 enzyme (Homo sapiens, UniProt P11802)    µM     =               1
3  CCN1CCN(c2ccc(N/C=C3\C(=O)NC(=O)c4ccc(-c5ccoc5)cc43)nc2)CC1  cyclin D1/cdk 4 enzyme (Homo sapiens, UniProt P11802)    µM     =            0.19
4  N#CCc1ccc(NC=C2C(=O)NC(=O)c3ccc(-c4ccc(Cl)cc4)cc32)cc1  cyclin D1/cdk 4 enzyme (Homo sapiens, UniProt P11802)    µM     =             7.9
5  O=C1NC(=O)c2ccc(C=CCc3ccccc3)cc2C1=CNCc1ccc(O)c(O)c1  cyclin D1/cdk 4 enzyme (Homo sapiens, UniProt P11802)    µM     =            2.48
6  CCS(=O)(=O)NCc1ccc(N/C=C2\C(=O)NC(=O)c3ccccc32)cc1  cyclin D1/cdk 4 enzyme (Homo sapiens, UniProt P11802)    µM     =            33.1
7  Cc1cc(NS(=O)(=O)c2ccc(NC=C3C(=O)NC(=O)c4ccccc43)cc2)no1  cyclin D1/cdk 4 enzyme (Homo sapiens, UniProt P11802)    µM     =            48.4
